nuclei count overview
Experiment: inhibitors of E-selectin induction by TNFa, primary screen, imaging, HUVEC, immunofluorescence, MLSMR starter and 10KST1 sets (AID 487);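 note: 100% = median nuclei count of all wells on the same plate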
Details: HUVEC TNFalpha-induced E-selectin immunofluorescence imaging, at 2 µM; measured here: cell number, toxicity
# value in %; strip the unit string

### Prompt Please report the measured nuclei count for CC1(C)Cc2[nH]c(=S)c(C#N)cc2CO1
### Response 118

### Prompt Please report the measured nuclei count for O=C(Cn1cnc2c(nnn2Cc2ccccc2)c1=O)c1ccc(Cl)cc1
### Response 108

### Prompt Please report the measured nuclei count for COC(=O)c1ccc(-c2ccco2)n1Cc1nc(-c2ccc(OC)c(OC)c2)oc1C
### Response 93.4

### Prompt Please report the measured nuclei count for O=C(CSc1ncccn1)NCc1ccccc1
### Response 120

### Prompt Please report the measured nuclei count for CCCC1Cc2c(sc3nc(SC)nc(N)c23)CO1 (stereo unspecified)
### Response 170

### Prompt Please report the measured nuclei count for CC1=C(C(=O)OCC(C)C)C(c2cc3c(cc2Br)OCO3)NC(=O)N1C (stereo unspecified)
### Response 118

====

Test: inhibitors of TNFa-induced NFkB p65 translocation, primary screen, imaging, HUVEC, MLSMR starter and 10KST1 sets (AID 438);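 note: compound added about 3h40 before a 20 min TNFalpha stimulation; signal is the nuclear over cytoplasmic p65 intensity ratio per well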
Conditions: HUVEC TNFa-induced p65 nuclear translocation; at 2 µM, stronger effect = higher value, 0% TNFa-plus-vehicle, 100% no-TNFa wells
assay-readout: inhibition (%)
# value in %; strip the unit string

O=C(CN(C(=O)CCC(=O)Nc1nccs1)c1ccccc1F)NCC1CCCO1 (stereo unspecified): -0.8

### Prompt Please report the measured inhibition for Cc1ccc(-c2ccc(=O)n(CC(=O)NCCCN3CCCCC3C)n2)cc1 (stereo unspecified)
### Response 5

### Prompt Please report the measured inhibition for CCN(CC)S(=O)(=O)c1ccc(Br)c(OC)c1
### Response 4.5

### Prompt Please report the measured inhibition for CC1(C)Cc2nc(NCCN3CCOCC3)c(C#N)cc2CO1
### Response -8.3

### Prompt Please report the measured inhibition for COc1cc(OC)c(NC(=O)c2ccco2)cc1Cl
### Response 2.2

### Prompt Please report the measured inhibition for Cn1ncc2nc[nH]c(=O)c21
### Response 2

====

Experiment: inhibitors of poly I:C-induced TLR3 signaling, primary screen, cell-based, poly I:C stimulus, luciferase, 10K MLSCN set (AID 602277)
Conditions: HEK293-TLR3 RL24 IRF3 luciferase reporter, at 10 µM, stronger effect = higher value
Activity calls are given as the source filed them.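 Rule for the calls: active = inhibition of the reporter signal at or above 50%; inactive = inhibition below 50%.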
assay-readout: inhibition

OC1C[N+]2(CCCCC2)C1: 10.3% (inactive)

### Prompt Please report the measured inhibition for COc1cc(S(=O)(=O)N(C)C)ccc1F
### Response 9.1% (inactive)

### Prompt Please report the measured inhibition for CCCCC(=O)NCCNc1nc2c(c(=O)n(C)c(=O)n2C)n1Cc1ccccc1
### Response 24.6% (inactive)

### Prompt Please report the measured inhibition for COc1ccccc1N1CCN(CC(O)c2ccc3cc[nH]c3c2)CC1 (centres undefined)
### Response 27.7% (inactive)

### Prompt Please report the measured inhibition for Cc1cc(=O)n(C)c(=O)n1CCCNc1ccccc1
### Response 6.15% (inactive)

====

Target: Voltage-gated potassium channel subunit beta-2 (Rattus norvegicus) (UniProt P62483)
Sequence (P62483 whole entry, looked up): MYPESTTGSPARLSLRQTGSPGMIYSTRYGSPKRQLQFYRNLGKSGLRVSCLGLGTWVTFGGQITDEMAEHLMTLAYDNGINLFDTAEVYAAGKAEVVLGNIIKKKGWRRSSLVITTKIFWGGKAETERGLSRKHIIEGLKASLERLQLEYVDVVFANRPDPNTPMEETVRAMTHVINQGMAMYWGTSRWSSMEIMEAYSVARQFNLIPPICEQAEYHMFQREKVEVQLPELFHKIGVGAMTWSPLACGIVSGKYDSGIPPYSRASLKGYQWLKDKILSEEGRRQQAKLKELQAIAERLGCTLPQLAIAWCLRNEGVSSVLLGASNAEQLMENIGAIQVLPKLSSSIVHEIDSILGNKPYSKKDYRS
Assay: KvBeta enzyme negative modulators, primary screen, biochemical, NADPH fluorescence (AID 622);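 note: slope of raw intensity against log time taken from 70 to 1610 s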
Conditions: recombinant KvBeta, 4-cyanobenzaldehyde reduction, at 10 µM, stronger effect = higher value
fluorescence slope overview
I'd appreciate a reply containing only the number, no unit.

Examples with answers:
COCCCn1c(SCC(=O)Nc2cccc(C)n2)nnc1-c1ccco1: -0.612
CCCCOc1ccccc1C1C(C(N)=O)=C(C)Nc2nnnn21 (centres undefined): -0.459
CC(C)CSc1nc2ccccc2n1CC(N)=O: -0.362
CCCC(CCC(=O)Nc1ccc(C(=O)OC)cc1)C(=O)O (centres undefined): -0.445
CC(=O)Nc1ccc(S(=O)(=O)Nc2nc3ccccc3nc2N2CCCC2)cc1: -0.593
CC1Cn2c(nnc2-c2ccc(F)cc2)S1 (centres undefined): -0.583
O=C(NCc1nc2ccccc2[nH]1)c1ccc(Cl)c(S(=O)(=O)N2CCCC2)c1: -0.531
CN(CCOC(=O)c1ccc2c(c1)OCCO2)Cc1ccccc1: -0.472
CSc1nc(N)nc(SCC(=O)C23CC4CC(CC(C4)C2)C3)c1C#N: -0.334
Cc1ccc(CNC(=O)c2cc3c(=O)n4ccccc4nc3n(CC3CCCO3)c2=N)cc1 (centres undefined): -0.331

Lab note: next molecule to report on.
### Prompt Please report the measured fluorescence slope for CN1CCc2c(C#N)c(N3CCCCC3)nc(N3CCOCC3)c2C1
### Response -0.418

====

Assay: inhibitors of E-selectin induction by TNFa, primary screen, imaging, HUVEC, immunofluorescence, MLSMR starter and 10KST1 sets (AID 487);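 note: 100% = median nuclei count of all wells on the same plate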
Conditions: HUVEC TNFalpha-induced E-selectin immunofluorescence imaging, at 2 µM; measured here: cell number, toxicity
assay-readout: nuclei count
Answer with the number, then the unit.

Examples with answers:
CC1(C)CC(=O)C(C=Nc2ccc(Cl)cn2)=C(O)C1: 114%
Cc1nc2sc(C(c3cccs3)N3CC(C)CC(C)C3)c(O)n2n1 (stereo unspecified): 109%
O=C(NCCC1=CCCCC1)C1CC(=O)N(C2CCCCCC2)C1 (stereo unspecified): 126%
Cc1cc(Nc2ccc3ccccc3c2)n2ncnc2n1: 146%
COc1cc2nc(-c3ccccc3)nc(N3CCCC3)c2cc1OC: 154%

### Prompt Please report the measured nuclei count for O=C(O)CCc1ccc(-c2cccs2)o1
### Response 118%

====

Experiment: inhibitors of poly I:C-induced TLR3 signaling, primary screen, cell-based, poly I:C stimulus, luciferase, 10K MLSCN set (AID 602277)
Conditions: HEK293-TLR3 RL24 IRF3 luciferase reporter, at 10 µM, stronger effect = higher value
Class label 1: inhibition at least 30%. Class label 0: inhibition below 30%.

CCOC(=O)N1CCN(C(=O)c2cccn3c(=O)c4sccc4nc23)CC1: label 0

### Prompt Hello, I need to know if COC(=O)CSc1nc2nc(C)cc(C)n2n1 has measured inhibition not below 30%. Thanks!
### Response label 0

### Prompt Hello, I need to know if CC1CCN(CCCNC(=O)c2coc3nc4ccccc4nc23)CC1 has measured inhibition not below 30%. Thanks!
### Response label 1

====

Experiment: inhibitors of poly I:C-induced TLR3 signaling, primary screen, cell-based, poly I:C stimulus, luciferase, 10K MLSCN set (AID 602277)
Conditions: HEK293-TLR3 RL24 IRF3 luciferase reporter, at 10 µM, stronger effect = higher value
assay-readout: inhibition (%)
# value in %; strip the unit string

Examples with answers:
CC1CN(c2nc(-c3ccccc3)nc3ccccc23)CC(C)O1 (stereo not given): 22
C=CCN1C(=O)C2(/C(=C(\O)c3ccc4c(c3)OCCO4)C(=O)C(=O)N2CCCOC)c2ccccc21 (stereo not given): 21.2
CCCCN(CC)CCCNC(=O)c1cc2c(=O)n(C)c3ccccc3c2n1C: 69.5
CC1(C)NC(=O)N(CN2C(=O)NC(C)(C)C2=O)C1=O: 9.34

Lab note: next compound to report on.
### Prompt Please report the measured inhibition for CS(=O)(=O)N1CCN(c2ccccc2NC(=O)c2cccs2)CC1
### Response 18.8

====

inhibition overview
Molecular target: Dual specificity protein phosphatase 6 (Homo sapiens)
Experiment: DUSP6 inhibitors restoring Erk phosphorylation by chemical complementation, primary imaging in DUSP6-transfected HeLa (AID 609);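 note: phospho-Erk level distribution per well compared with pooled transfected vehicle control wells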
Settings: HeLa MKP-3 transfected, phospho-Erk imaging KS statistic; at 10 µM; stronger effect = higher value; cells stimulated with TPA for 15 min
# value in %; strip the unit string

Examples with answers:
COc1ccc2c(c1OC)C(=O)N1c3ccccc3C(=O)N(c3ccccc3F)C21 (stereo not drawn): 5.35
CCN(CC)c1ccc(C2Nc3cccc4cccc(c34)N2)c(O)c1: -0.584
COc1ccc(CC(=O)OCN2C(=O)c3ccccc3C2=O)cc1: 11.9
CCOC(=O)N1CCN(c2ncnc3c2cnn3-c2ccc(OC)cc2)CC1: 13.4
Cc1ccc(N(CN2C(=O)C3CC=CCC3C2=O)C(=O)c2ccco2)cc1Cl (stereo not drawn): -7.28

### Prompt Please report the measured inhibition for CCC(=O)Nc1ccc(-c2nnc(-c3ccccc3)o2)cc1
### Response 1.63

### Prompt Please report the measured inhibition for COC(=O)C1CCN(c2nc3ccccc3nc2C(C#N)C(=O)NCCc2ccccc2)CC1 (stereo not drawn)
### Response 1.42

### Prompt Please report the measured inhibition for Clc1ccc(COc2ccccn2)c(Cl)c1
### Response 23.8

### Prompt Please report the measured inhibition for COCCCNC(=O)c1c(N)n(/N=C/c2cccnc2)c2nc3ccccc3nc12
### Response 4.25

### Prompt Please report the measured inhibition for C=CCN(C)CCCNC(=O)/C=N/O
### Response 31.4

### Prompt Please report the measured inhibition for CCOC(=O)CNC(=O)CNC(=O)c1ccc(OCC(C)C)cc1
### Response -5.81

### Prompt Please report the measured inhibition for O=C(CN1C(=O)c2ccccc2S1(=O)=O)NCCSCc1ccco1
### Response 20.2

### Prompt Please report the measured inhibition for N#CC1=C(N)OC2=C(C(=O)CCC2)[C@]12C(=O)N(CC(N)=O)c1ccccc12
### Response -7.28
